Reference source for all entries: patent EP3057951B1

Could you please report measured inhibition at 6 µM for the items listed next?
Target: wild type human RORγt LBD (Homo sapiens, UniProt P51449)
Construct: expressed in transfected cells; host or cells: HEK293T
Sequence (P51449 258-518): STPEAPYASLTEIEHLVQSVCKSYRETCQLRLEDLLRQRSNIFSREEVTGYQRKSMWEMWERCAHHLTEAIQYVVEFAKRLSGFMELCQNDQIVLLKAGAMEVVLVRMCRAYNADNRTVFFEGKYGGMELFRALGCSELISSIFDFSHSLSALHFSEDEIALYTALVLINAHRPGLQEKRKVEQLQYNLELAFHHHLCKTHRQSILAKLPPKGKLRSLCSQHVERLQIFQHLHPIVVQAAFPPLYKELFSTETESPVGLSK
Test: RORγt (LBD) Reporter Assay (GAL4-luciferase, HEK293T cells)
Type: cell-based
Details: HEK-293T, read-out: RORγt (LBD) Reporter Assay, % inhibition @ 6 µM, 6 µM compound concentration
Numbers only; they are read as %.

Field request: inhibition at 6 µM | item: COc1nc2ccc(C(O)(c3ccc(C)nc3C)C3CN(C(C)=O)C3)cc2c(Cl)c1Cc1ccc(C(F)(F)F)cc1 (single isomer, unassigned) [Example 87b]
100

Moving on to the next compound: CC(=O)N1CCC(C(O)(c2ccccc2)c2ccc3nc(C)c(Cc4ccc(C(F)(F)F)cc4)c(Cl)c3c2)CC1 (stereo not shown) [Example 27a]
101

Moving on to the next compound: CC(=O)N1CCC(C(O)(c2cc(C)c3nc(C#N)c(Cc4ccc(-n5cccn5)cc4)c(C#N)c3c2)c2cncn2C)CC1 (single isomer, unassigned) [Example 81b]
97

Moving on to the next compound: COc1nc2ccc(C(O)(c3cnnn3C)c3cnc(C)n3C)cc2c(C#N)c1Cc1ccc(F)cc1 (single isomer, unassigned) [Example 66b]
82

Moving on to the next compound: COc1nc2ccc(C(O)(c3ccc(C)nc3C)c3cncn3C)cc2c(Cl)c1Cc1ccc(C(F)(F)F)cc1 (racemic) [Example 88a]
98

Moving on to the next compound: COc1nc2ccc(C(O)(c3cncn3C)C3CCOCC3)cc2c(Cl)c1Cc1ccc(-n2cccn2)cc1 (single isomer, unassigned) [Example 1b]
99

Moving on to the next compound: Cn1cncc1C(O)(c1ccc(C(F)(F)F)nc1)c1ccc2nc(C(F)(F)F)c(Cc3ccccc3)c(O)c2c1 (stereo not shown) [Example 107]
57

Moving on to the next compound: COc1nc2ccc(C(N)(c3ccc(C(F)(F)F)nc3)c3cncn3C)cc2c(Cl)c1Cc1cc2ccccc2s1 (single isomer, unassigned) [Example 71b]
96

Moving on to the next compound: COc1c(Cc2ccccc2)c(C(F)(F)F)nc2ccc(C(O)(c3ccc(Cl)cc3)c3cncn3C)cc12 (single isomer, unassigned) [Example 101b]
62

Moving on to the next compound: COc1nc2ccc(C(O)(c3ccc(C)nc3C)c3cnnn3C)cc2c(Cl)c1Cc1ccc(N(C)C)cc1 (stereo not shown) [Example 24a]
100

Moving on to the next compound: Cn1cncc1C(O)(c1ccc2nc(C(F)(F)F)c(Cc3ccccc3)c(Cl)c2c1)c1ccccn1 (stereo not shown) [Example 97]
96

Moving on to the next compound: CCc1nc2ccc(C(O)(c3ccc(C)nc3C)c3cnnn3C)cc2c(Cl)c1Cc1ccc(C(F)(F)F)cc1 (single isomer, unassigned) [Example 23b]
94

Moving on to the next compound: Cc1cc(C(O)(c2ccnc(C(F)(F)F)c2)c2cncn2C)cc2c(C#N)c(Cc3ccc(-n4cccn4)cc3)c(C#N)nc12 (single isomer, unassigned) [Example 83b]
104
